B1: LINE1-full (parent)
chain: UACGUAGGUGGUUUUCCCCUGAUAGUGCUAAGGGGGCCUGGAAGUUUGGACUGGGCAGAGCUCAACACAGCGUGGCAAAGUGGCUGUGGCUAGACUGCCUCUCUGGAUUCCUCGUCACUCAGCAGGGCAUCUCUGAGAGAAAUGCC

- Variants of: B1
- method-summary: self-cleavage, relative activity (ratio to wild type); higher = more cleavage; in vitro, sequencing; the parent is a self-cleaving ribozyme
Each item that follows carries a reported self-cleavage.
// no unit string in output, number only

Challenge: Could you please provide reported self-cleavage for UACGUAGGUGGCUUUCCCCUGAUAGUGCUAAGGGGGCCUGGAAGUUUGUACUGGGCAGAGCUCAACACAGCGUGGCAAAGUGGCUGUGGCUAGACUGCCUCUCUGGAUUCCUCGUCACUCAGCAGGGCAUCUCUGAGAGAAAUGCC [U12C G49U] ? Thanks!
Response given: 1.35

Challenge: Could you please provide reported self-cleavage for UACGUAGGUGGUUUUCCCCUGAUAGUGCUAAGGGGGCCUGGAAGUUUGGACUGGGCAGAGCUCAACACAGCGAGGCAAAGUGGCUGUGGCUAGACUGCCUCUCUGGAUUCCCCGUCACUCAGCAGGGCAUCUCUGAGAGAAAUGCC [U73A U112C] ? Thanks!
Response given: 1.56

***
Challenge: Could you please provide reported self-cleavage for UACGUAGGUGGUUUUCCCCUGAUAGUGCUAAGGGGGCCUGGAAGUUUGGACUGGGCAGAGCUCAACGCAGCGUGGCAAAGUGGCUGUGGCUUGACUGCCUCUCUGGAUUCCUCGUCACUCAGCAGGGCAUCUCUGAGAGAAAUGCC [A67G A92U] ? Thanks!
Response given: 0.41

Challenge: Could you please provide reported self-cleavage for UACGUAGGUGGUUUUCCCCUGAUAGUGCUAAGGGGGCCUGGAAGUUUGGACUGGGCAGAGCUCGACACAGCGUGGCAAAGUGGCUGUGGCUAGACUGCCUCUCUGGAUUCCUCGUCACUCAGCAGGGCACCUCUGAGAGAAAUGCC [A64G U130C] ? Thanks!
Response given: 0.33

Challenge: Could you please provide reported self-cleavage for UACGUAGGUGGUUUUCCCCUGAUAGUGCUAAGGGGGCCUGGAAGUUUGGACUGGGCAGAGCUCUACACAGCGUGGCAAAGUGGCUGUGGCUAGACUGCCUCUCUGGAUUCCUCGUAACUCAGCAGGGCAUCUCUGAGAGAAAUGCC [A64U C116A] ? Thanks!
Response given: 0.37

Challenge: Could you please provide reported self-cleavage for UACGUAGGGGGUUUUCCCCUGAUAGUGCUAAGGGGGCCUGGAAAUUUGGACUGGGCAGAGCUCAACACAGCGUGGCAAAGUGGCUGUGGCUAGACUGCCUCUCUGGAUUCCUCGUCACUCAGCAGGGCAUCUCUGAGAGAAAUGCC [U9G G44A] ? Thanks!
Response given: 1.53

Challenge: Could you please provide reported self-cleavage for UACGUAGGUGGUUUUCCCCUGAUAGUGCUAAGGGGGCCUGGAAGUCCGGACUGGGCAGAGCUCAACACAGCGUGGCAAAGUGGCUGUGGCUAGACUGCCUCUCUGGAUUCCUCGUCACUCAGCAGGGCAUCUCUGAGAGAAAUGCC [U46C U47C] ? Thanks!
Response given: 1.95

Challenge: Could you please provide reported self-cleavage for UACGUAGGUGGUCUUCCCCUGAUAGUGCUAAGGGGGCCUGGAAGUUUGGACUGGGCAGAGCUCAACACAGCGUGGCAAAGUGGCUGUGGCUAGACUGCCUCUCUGGAUUCCUCGUCACUCAGCAGGGAAUCUCUGAGAGAAAUGCC [U13C C128A] ? Thanks!
Response given: 0.79

Challenge: Could you please provide reported self-cleavage for UACGUAGGUGGUUUUCCCCCGAUAGUGCUAAGGGGGCCUGGAAGUUUGGACUGGGCAGAGCUCAACACAGCGUGGCAAAGUGACUGUGGCUAGACUGCCUCUCUGGAUUCCUCGUCACUCAGCAGGGCAUCUCUGAGAGAAAUGCC [U20C G83A] ? Thanks!
Response given: 1

Challenge: Could you please provide reported self-cleavage for UACGUAGGUGGUUUUCCCCUGAUAGUGCUAAGGGGGCCUGGGAGUUUGGACUGGGCAGAGCUCAACACAGCGUGGCAAAGUGGCUGUGGCUAGAUUGCCUCUCUGGAUUCCUCGUCACUCAGCAGGGCAUCUCUGAGAGAAAUGCC [A42G C95U] ? Thanks!
Response given: 0.2

Challenge: Could you please provide reported self-cleavage for UACGUAGGUGGUUUUCCCCUGAUAGUGCUAAGGGGGCCUGGAAGUUUGGACUGGGCUGAGCUCAACACAGCGUGGCAAAGUGGCUGUGGCUAGACUGCCUCUCUGGAUUCCUCGUCACUCAGCAGGGCAUCUCUGAGAGAAUUGCC [A57U A142U] ? Thanks!
Response given: 0.08

Challenge: Could you please provide reported self-cleavage for UACGUAGGUGGUUUUCCCCUGAUAGUGCUAAGGGGGCCUGGGAGUUUGGACUGGGCGGAGCUCAACACAGCGUGGCAAAGUGGCUGUGGCUAGACUGCCUCUCUGGAUUCCUCGUCACUCAGCAGGGCAUCUCUGAGAGAAAUGCC [A42G A57G] ? Thanks!
Response given: 0.95

Challenge: Could you please provide reported self-cleavage for UACGUAGGUGGUUUUCCCCUGAUAGUGCCAAGGGGGCCUGGAAGUUUGGACUGGGCAGAGCUCAACACAGCGUGGCAAAGUGGCUGUGGCUAGACUGCCUCUCUGGAUUCCCCGUCACUCAGCAGGGCAUCUCUGAGAGAAAUGCC [U29C U112C] ? Thanks!
Response given: 1.07

Challenge: Could you please provide reported self-cleavage for UACGUAGGUGGUUUUCCCCUGAUAGUGCUAAGGGGGCCUGGAAGUUUGGACUGAGCAGAGCUCAACACAGCGUGGCAUAGUGGCUGUGGCUAGACUGCCUCUCUGGAUUCCUCGUCACUCAGCAGGGCAUCUCUGAGAGAAAUGCC [G54A A78U] ? Thanks!
Response given: 0.79

Challenge: Could you please provide reported self-cleavage for UACGUAGGUGGUUUUCCCCUGAUAGCGCUAAGGGGGUCUGGAAGUUUGGACUGGGCAGAGCUCAACACAGCGUGGCAAAGUGGCUGUGGCUAGACUGCCUCUCUGGAUUCCUCGUCACUCAGCAGGGCAUCUCUGAGAGAAAUGCC [U26C C37U] ? Thanks!
Response given: 0.77

Challenge: Could you please provide reported self-cleavage for UACGUAGGUGGUUUUCCCCUGAUAGUGCUAAGGGGGCCUGGAAGUUUGGACUGGGCAGAGCUCUACACAGCGUGGCAAAGUGGCUGUGGCUAGACUGCCUCUCUGGAUUCCUCGACACUCAGCAGGGCAUCUCUGAGAGAAAUGCC [A64U U115A] ? Thanks!
Response given: 0.57

Challenge: Could you please provide reported self-cleavage for UACGUAGGUGGUUUUCCCCUGAUAGUGCUAAGGGGGCCUGGAAGUUUGGACUGGGCAGAGCUCAACACAGCGUGGCAAAGUGGCUGUGGCUAGACUGCCUCUCUGGAUUCCUCGCCACUCAGCAGGGCAUCUCCGAGAGAAAUGCC [U115C U134C] ? Thanks!
Response given: 1.61

Challenge: Could you please provide reported self-cleavage for UACGUAGGUGGUUUUCCCCUGAUAGUGCUAAGGGGGCCUGGGAGUUUGGACUGGGCAGAGCUCACCACAGCGUGGCAAAGUGGCUGUGGCUAGACUGCCUCUCUGGAUUCCUCGUCACUCAGCAGGGCAUCUCUGAGAGAAAUGCC [A42G A65C] ? Thanks!
Response given: 0.07

Challenge: Could you please provide reported self-cleavage for UACGUAGGUGGUUUUCCCCUGAUAGUGCUAAGGGGGCCUGGAAGUUUGGUCUGGGCAGAGCUCAACACAGCGUGGCAAAGUGGCUAUGGCUAGACUGCCUCUCUGGAUUCCUCGUCACUCAGCAGGGCAUCUCUGAGAGAAAUGCC [A50U G86A] ? Thanks!
Response given: 0.06

Challenge: Could you please provide reported self-cleavage for UACGUAGGUGGGUUUCCCCUGAUAGCGCUAAGGGGGCCUGGAAGUUUGGACUGGGCAGAGCUCAACACAGCGUGGCAAAGUGGCUGUGGCUAGACUGCCUCUCUGGAUUCCUCGUCACUCAGCAGGGCAUCUCUGAGAGAAAUGCC [U12G U26C] ? Thanks!
Response given: 0.57
